The sequences listed here are annotated with their binding signal.
Target: OsWRKY34 (Oryza sativa, UniProt Q0JBA9 1-250)
Sequence (Q0JBA9 entry or part of it): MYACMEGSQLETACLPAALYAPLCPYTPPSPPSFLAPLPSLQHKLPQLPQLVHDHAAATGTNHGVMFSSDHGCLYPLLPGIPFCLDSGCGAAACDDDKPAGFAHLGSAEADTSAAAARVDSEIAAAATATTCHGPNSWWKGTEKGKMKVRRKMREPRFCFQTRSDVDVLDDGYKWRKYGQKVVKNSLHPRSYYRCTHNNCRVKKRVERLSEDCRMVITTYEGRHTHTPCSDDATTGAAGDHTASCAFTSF
Test: protein-binding microarray (RPBM); PBS, 2% BSA, 51.3 ng/ul salmon testes DNA, 50 uM zinc acetate, 200 nM TF, 25 C, 1 h; high values mean tight binding
Details: protein: recombinant; tags: N-terminal polyhistidine and DsRed monomer fusion (pET32a); label: CyDye5-dUTP incorporated in the synthesized complementary strand; 3' TTTTT single-stranded linker to array surface; dsDNA, one strand shown
Over roughly 68,000 sequences, “fluorescence intensity (a.u.)” has its median near 9,100; the highest 2% begin near 16,000. The list comes from a sample in which the highest values are over-represented; it also holds close analogues and randomly drawn sequences.

Illustrative cases are given below, each with its answer.
>  <POLYMER SEQUENCE>
TAGCATGACCTTTCACCCATACATATGAGCTACTTCTCTTCGGAGTCACCTAGTGCAG

>  <TESTED ON>
OsWRKY34 (Oryza sativa, UniProt Q0JBA9 1-250)

>  <binding signal>
9280 fluorescence intensity (a.u.)

$$$$
>  <POLYMER SEQUENCE>
GTATTGCAATTTTTTTTTGTTTGTGTTGTATCTGTTCTCTCGGAGTCACCTAGTGCAG

>  <TESTED ON>
OsWRKY34 (Oryza sativa, UniProt Q0JBA9 1-250)

>  <binding signal>
8110 fluorescence intensity (a.u.)

$$$$
>  <POLYMER SEQUENCE>
CGTGGGCCCCACCCGTGCCAGCTCACCTCATCCCCACCACCGGAGTCACCTAGTGCAG

>  <TESTED ON>
OsWRKY34 (Oryza sativa, UniProt Q0JBA9 1-250)

>  <binding signal>
8940 fluorescence intensity (a.u.)

$$$$

Lookup: Bench note: what binding signal did `GGACCCACCTGCCGAACCAGCACGCATCGCGTCTCGCACCCGGAGTCACCTAGTGCAG` show?
Found: 8590 fluorescence intensity (a.u.)

Lookup: Next entry: `CGCCGCCCATCTTGTCCCAATTCGGCTCCTATAAATTTCCCGGAGTCACCTAGTGCAG`
Found: 8750 fluorescence intensity (a.u.)

----------
Target: OsWRKY34 (Oryza sativa, UniProt Q0JBA9 1-250)
Test: protein-binding microarray (RPBM); PBS, 2% BSA, 51.3 ng/ul salmon testes DNA, 50 uM zinc acetate, 200 nM TF, 25 C, 1 h; high values mean tight binding
Conditions: protein: recombinant; tags: N-terminal polyhistidine and DsRed monomer fusion (pET32a); label: CyDye5-dUTP incorporated in the synthesized complementary strand; 3' TTTTT single-stranded linker to array surface; dsDNA, one strand shown
In all, about 68,000 sequences were measured (“fluorescence intensity (a.u.)”: median about 9,100, highest 2% from about 16,000 on). This excerpt belongs to a sample that is enriched for the highest values.
Quick reference for binding signal among some sequences

>  <POLYMER SEQUENCE>
GGTAGATTATATTAGGTTTTTCTTCGTGTTGTATTCACGACGGAGTCACCTAGTGCAG

>  <binding signal>
8720 fluorescence intensity (a.u.)

$$$$

Lookup: May I ask what binding signal has been recorded for `TGTCTGGTCAACGCACAATTTCGGTCAGTAACTCCCTGGCCGGAGTCACCTAGTGCAG` ?
Found: 9770 fluorescence intensity (a.u.)

Lookup: Now the sequence `ATTTTATTGTTGCGGTTGCCAATCAACAACGACGTCATTTCGGAGTCACCTAGTGCAG`
Found: 9550 fluorescence intensity (a.u.)

Lookup: One more sequence: `GACACGGAAAATCATGGTTTGACTTTTTTTTTTGGGACGGCGGAGTCACCTAGTGCAG`
Found: 19400 fluorescence intensity (a.u.)

Lookup: Could you do the same for `GTCTTCTCTGTTCTTCTTCAGATGGCGAAAGCTCTCACCACGGAGTCACCTAGTGCAG` , please?
Found: 10400 fluorescence intensity (a.u.)

Lookup: Then `GGGTGTGTGCGCATGTGTGTTTGTCGTGTATTAAAAAAAACGGAGTCACCTAGTGCAG` ?
Found: 9130 fluorescence intensity (a.u.)

Lookup: Follow-up item: `TCGTTGGTGGGTAGGTGGTGGAGATGGTGGTGGCGGCGGGCGGAGTCACCTAGTGCAG`
Found: 15600 fluorescence intensity (a.u.)

Lookup: Same question, `CCTCACCGATGGATTTTTTAGCCCGATCCTACCCCTCCTACGGAGTCACCTAGTGCAG` this time
Found: 10500 fluorescence intensity (a.u.)

Lookup: What would you report for `GCTGTGGGTAGGCCGGCGCCGCCGGCCGACGGGTGGGGAGCGGAGTCACCTAGTGCAG` ?
Found: 8420 fluorescence intensity (a.u.)

Lookup: Similarly, `TGTTGACTTTTGGATACATGTTTGACAATTCGTCTTATTTCGGAGTCACCTAGTGCAG` ?
Found: 14700 fluorescence intensity (a.u.)

Lookup: Param item: `GGCCGGCGACGCTGAACGGGGTGGGGTAGTCTGCTATTTACGGAGTCACCTAGTGCAG`
Found: 18000 fluorescence intensity (a.u.)

Lookup: Next up: `CCCCATTCACTTCCACAGACAAGTAGCATCACCTTTCAGTCGGAGTCACCTAGTGCAG`
Found: 8710 fluorescence intensity (a.u.)

Lookup: Lookup `GAATCATGAGTTGGTTGGGTTGGCATTAAACTGTTTTGAGCGGAGTCACCTAGTGCAG`
Found: 12100 fluorescence intensity (a.u.)

Lookup: Then what about the sequence `CGGCGGCGGCGACCGCGGGTAGGGTGGGTGGCGCGGGCCGCGGAGTCACCTAGTGCAG` ?
Found: 9330 fluorescence intensity (a.u.)

Lookup: Follow-up item: `TTTGTGTTGTCTAGACATTTTTTTCTATTTTTCACCTATTCGGAGTCACCTAGTGCAG`
Found: 9190 fluorescence intensity (a.u.)

Lookup: Queued: `ACTTTGTCCACCCATTTTGTGTTGTCTCGTTGTTTCTATTCGGAGTCACCTAGTGCAG`
Found: 17000 fluorescence intensity (a.u.)

Lookup: // repeat for `GGTGGGCCGGGCTTTGCTTTTGCTTTAAACATTTGCGTGGCGGAGTCACCTAGTGCAG` and report
Found: 8680 fluorescence intensity (a.u.)

Lookup: Now this one: `TCTCTGTCTCACTCTTCCTCTCTCTCACACGCACGGCGAGCGGAGTCACCTAGTGCAG`
Found: 8380 fluorescence intensity (a.u.)

Lookup: Further, for `GCGGGCGGCAGCGCGGTGGGGCGGTGGCGGTGGTGGCGGCCGGAGTCACCTAGTGCAG` ?
Found: 9980 fluorescence intensity (a.u.)
